Molecular target: rhesus (Macaca Mulatta) H3 receptor (Macaca mulatta)
Sequence (Q865E1 1-445): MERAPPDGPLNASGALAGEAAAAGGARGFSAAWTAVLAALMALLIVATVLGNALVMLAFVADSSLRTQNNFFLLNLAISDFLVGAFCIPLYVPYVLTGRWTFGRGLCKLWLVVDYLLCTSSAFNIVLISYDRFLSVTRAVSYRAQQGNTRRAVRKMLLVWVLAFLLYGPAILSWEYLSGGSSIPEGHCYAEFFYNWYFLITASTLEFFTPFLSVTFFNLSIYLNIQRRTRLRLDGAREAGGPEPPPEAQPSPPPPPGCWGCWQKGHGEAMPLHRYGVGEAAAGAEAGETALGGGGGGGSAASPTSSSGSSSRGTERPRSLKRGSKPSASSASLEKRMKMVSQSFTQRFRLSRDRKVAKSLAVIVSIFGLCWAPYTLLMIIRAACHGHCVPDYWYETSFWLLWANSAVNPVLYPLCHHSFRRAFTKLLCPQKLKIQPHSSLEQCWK
Assay: Rhesus H3 radioligand binding assay ([3H]-Methylhistamine displacement, WGA SPA beads)
Parameters: species or system rhesus monkey (Macaca Mulatta)
Conditions: Table 1; [3H]-Methylhistamine 2 nM, Cheng-Prusoff
pKi: −log10 of the molar value. Counter-ions that a name gives are not always drawn.
Recorded metric: pKi

[I] Cc1cc(N2CC[C@H](N3CCC[C@@H]3C)C2)ccc1NC(=O)c1ccoc1
[II] CC1CCCN1C1CCN(c2ccc(NC(=O)CC3CCCC3)cc2)C1 (centres unmarked) [Example 36, trifluoroacetate]
Looking only at measured pKi, which entry is lower, I or II ? Provide the label of your selected option as the answer.
II
